target: NR1/NR2D (Rattus norvegicus, UniProt P35439+Q62645); construct: expressed in transfected cells; host or cells: Xenopus oocytes injected with in vitro transcribed RNA; test: two-microelectrode voltage clamp of recombinant NMDA receptors in Xenopus oocytes, NR1/NR2D; type: cell-based

compound	resultUnit	Ki
O=C(O)[C@H]1NCCN(C(=O)c2ccc3c(ccc4ccccc43)c2)[C@H]1C(=O)O (racemic)	µM	0.11

----------
target: UniProt:Q00960
pKi: −log10 of the molar value.

compound	pKi
O=C(O)[C@H]1NCCN(C(=O)c2ccc3c(ccc4ccccc43)c2)[C@H]1C(=O)O (racemic) [PPDA]	6.27

----------
biological target: NR1/NR2C (Rattus norvegicus, UniProt P35439+Q00961); construct: expressed in transfected cells; host or cells: Xenopus oocytes injected with in vitro transcribed RNA; assay: two-microelectrode voltage clamp of recombinant NMDA receptors in Xenopus oocytes, NR1/NR2C; assay type: cell-based; conditions: recombinant, NR1a co-expressed in Xenopus oocytes; mean +/- SEM; read-out: NR1/NR2C Ki
Sequence (Q00961 20-1237, other chains not shown): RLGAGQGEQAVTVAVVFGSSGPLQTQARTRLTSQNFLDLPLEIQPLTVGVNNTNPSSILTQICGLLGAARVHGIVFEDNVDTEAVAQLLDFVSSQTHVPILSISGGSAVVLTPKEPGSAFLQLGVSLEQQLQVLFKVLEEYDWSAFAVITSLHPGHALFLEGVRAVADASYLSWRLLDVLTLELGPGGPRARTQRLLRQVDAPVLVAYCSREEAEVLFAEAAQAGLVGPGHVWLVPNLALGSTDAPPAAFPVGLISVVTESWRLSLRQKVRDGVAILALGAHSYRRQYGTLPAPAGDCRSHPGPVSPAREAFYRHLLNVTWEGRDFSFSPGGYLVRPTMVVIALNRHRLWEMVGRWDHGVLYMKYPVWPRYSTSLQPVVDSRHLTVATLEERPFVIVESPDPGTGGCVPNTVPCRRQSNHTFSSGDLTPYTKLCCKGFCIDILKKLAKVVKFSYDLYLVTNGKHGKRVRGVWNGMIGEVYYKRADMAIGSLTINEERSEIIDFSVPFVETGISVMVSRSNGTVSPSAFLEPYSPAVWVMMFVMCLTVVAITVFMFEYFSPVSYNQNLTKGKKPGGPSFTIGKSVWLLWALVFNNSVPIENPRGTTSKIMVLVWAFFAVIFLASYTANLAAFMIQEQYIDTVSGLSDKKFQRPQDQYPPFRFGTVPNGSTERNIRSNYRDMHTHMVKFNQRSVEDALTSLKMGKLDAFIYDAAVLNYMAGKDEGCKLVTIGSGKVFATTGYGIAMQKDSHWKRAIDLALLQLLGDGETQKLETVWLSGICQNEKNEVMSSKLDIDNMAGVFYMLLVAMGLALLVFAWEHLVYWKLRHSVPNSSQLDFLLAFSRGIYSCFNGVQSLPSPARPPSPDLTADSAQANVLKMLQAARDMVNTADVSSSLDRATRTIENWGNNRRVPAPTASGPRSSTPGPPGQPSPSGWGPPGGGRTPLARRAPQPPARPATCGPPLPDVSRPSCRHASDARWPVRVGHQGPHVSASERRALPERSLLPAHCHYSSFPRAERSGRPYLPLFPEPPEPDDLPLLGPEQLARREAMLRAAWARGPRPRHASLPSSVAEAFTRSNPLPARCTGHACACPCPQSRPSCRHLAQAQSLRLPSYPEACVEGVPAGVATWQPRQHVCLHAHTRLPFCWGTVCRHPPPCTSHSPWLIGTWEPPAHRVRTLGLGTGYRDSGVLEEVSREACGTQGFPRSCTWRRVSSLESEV
pKi: −log10 of the molar value.
quantityMeasured: pKi

compound	numericValue
O=C(O)C1NCCN(C(=O)c2ccc(-c3ccccc3)cc2)C1C(=O)O (stereo not shown) [PBPD, reference compound]	5.05

----------
target: NR1/NR2B (Rattus norvegicus, UniProt P35439+Q00960); construct: expressed in transfected cells; host or cells: Xenopus oocytes injected with in vitro transcribed RNA; assay: two-microelectrode voltage clamp of recombinant NMDA receptors in Xenopus oocytes, NR1/NR2B; format: cell-based; details: recombinant, NR1a co-expressed in Xenopus oocytes; mean +/- SEM; read-out: NR1/NR2B Ki
Sequence (Q00960 27-1482, other chains not shown): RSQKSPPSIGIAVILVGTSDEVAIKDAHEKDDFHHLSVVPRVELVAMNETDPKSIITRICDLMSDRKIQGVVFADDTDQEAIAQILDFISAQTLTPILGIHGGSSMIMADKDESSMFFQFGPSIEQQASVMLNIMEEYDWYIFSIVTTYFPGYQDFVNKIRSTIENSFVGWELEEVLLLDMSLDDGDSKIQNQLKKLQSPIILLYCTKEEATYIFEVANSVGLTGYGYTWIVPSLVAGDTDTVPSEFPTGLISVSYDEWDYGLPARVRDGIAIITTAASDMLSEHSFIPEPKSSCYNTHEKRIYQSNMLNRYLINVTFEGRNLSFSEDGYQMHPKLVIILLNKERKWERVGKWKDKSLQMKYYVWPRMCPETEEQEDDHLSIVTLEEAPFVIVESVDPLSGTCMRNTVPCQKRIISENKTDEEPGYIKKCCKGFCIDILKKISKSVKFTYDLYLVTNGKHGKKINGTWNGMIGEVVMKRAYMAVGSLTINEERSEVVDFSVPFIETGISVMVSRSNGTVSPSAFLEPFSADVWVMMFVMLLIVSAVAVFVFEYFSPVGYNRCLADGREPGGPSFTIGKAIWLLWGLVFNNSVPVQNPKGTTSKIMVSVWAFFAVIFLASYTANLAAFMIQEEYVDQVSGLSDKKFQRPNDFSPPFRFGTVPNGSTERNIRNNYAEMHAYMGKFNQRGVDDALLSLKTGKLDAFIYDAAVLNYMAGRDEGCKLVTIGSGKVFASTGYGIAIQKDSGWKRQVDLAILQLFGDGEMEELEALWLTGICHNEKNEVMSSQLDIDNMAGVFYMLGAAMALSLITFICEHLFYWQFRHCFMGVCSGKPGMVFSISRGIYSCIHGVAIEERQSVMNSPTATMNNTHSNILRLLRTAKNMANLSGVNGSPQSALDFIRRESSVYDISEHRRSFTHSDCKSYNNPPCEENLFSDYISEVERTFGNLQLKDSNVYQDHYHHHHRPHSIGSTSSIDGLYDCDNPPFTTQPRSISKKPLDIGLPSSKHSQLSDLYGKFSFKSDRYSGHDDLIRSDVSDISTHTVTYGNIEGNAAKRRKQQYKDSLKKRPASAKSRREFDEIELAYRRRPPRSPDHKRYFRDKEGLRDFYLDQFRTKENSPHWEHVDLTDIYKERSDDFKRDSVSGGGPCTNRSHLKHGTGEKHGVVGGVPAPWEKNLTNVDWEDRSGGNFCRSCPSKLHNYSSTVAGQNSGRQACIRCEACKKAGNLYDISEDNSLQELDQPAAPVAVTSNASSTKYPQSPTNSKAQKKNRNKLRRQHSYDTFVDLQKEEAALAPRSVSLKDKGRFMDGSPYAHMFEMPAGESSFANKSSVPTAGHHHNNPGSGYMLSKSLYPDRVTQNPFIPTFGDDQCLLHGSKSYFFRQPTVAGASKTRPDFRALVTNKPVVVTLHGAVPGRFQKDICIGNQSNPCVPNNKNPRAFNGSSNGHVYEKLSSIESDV
quantityMeasured: Ki (µM)

compound	numericValue
O=C(O)C1NCCN(C(=O)c2ccc(-c3ccccc3)cc2)C1C(=O)O (stereo not shown) [PBPD, reference compound]	5.01

----------
biological target: Native NMDA receptor, Cerebellum (NR2A) (Rattus norvegicus, UniProt Q00959)
Sequence (Q00959 23-1464, other chains not shown): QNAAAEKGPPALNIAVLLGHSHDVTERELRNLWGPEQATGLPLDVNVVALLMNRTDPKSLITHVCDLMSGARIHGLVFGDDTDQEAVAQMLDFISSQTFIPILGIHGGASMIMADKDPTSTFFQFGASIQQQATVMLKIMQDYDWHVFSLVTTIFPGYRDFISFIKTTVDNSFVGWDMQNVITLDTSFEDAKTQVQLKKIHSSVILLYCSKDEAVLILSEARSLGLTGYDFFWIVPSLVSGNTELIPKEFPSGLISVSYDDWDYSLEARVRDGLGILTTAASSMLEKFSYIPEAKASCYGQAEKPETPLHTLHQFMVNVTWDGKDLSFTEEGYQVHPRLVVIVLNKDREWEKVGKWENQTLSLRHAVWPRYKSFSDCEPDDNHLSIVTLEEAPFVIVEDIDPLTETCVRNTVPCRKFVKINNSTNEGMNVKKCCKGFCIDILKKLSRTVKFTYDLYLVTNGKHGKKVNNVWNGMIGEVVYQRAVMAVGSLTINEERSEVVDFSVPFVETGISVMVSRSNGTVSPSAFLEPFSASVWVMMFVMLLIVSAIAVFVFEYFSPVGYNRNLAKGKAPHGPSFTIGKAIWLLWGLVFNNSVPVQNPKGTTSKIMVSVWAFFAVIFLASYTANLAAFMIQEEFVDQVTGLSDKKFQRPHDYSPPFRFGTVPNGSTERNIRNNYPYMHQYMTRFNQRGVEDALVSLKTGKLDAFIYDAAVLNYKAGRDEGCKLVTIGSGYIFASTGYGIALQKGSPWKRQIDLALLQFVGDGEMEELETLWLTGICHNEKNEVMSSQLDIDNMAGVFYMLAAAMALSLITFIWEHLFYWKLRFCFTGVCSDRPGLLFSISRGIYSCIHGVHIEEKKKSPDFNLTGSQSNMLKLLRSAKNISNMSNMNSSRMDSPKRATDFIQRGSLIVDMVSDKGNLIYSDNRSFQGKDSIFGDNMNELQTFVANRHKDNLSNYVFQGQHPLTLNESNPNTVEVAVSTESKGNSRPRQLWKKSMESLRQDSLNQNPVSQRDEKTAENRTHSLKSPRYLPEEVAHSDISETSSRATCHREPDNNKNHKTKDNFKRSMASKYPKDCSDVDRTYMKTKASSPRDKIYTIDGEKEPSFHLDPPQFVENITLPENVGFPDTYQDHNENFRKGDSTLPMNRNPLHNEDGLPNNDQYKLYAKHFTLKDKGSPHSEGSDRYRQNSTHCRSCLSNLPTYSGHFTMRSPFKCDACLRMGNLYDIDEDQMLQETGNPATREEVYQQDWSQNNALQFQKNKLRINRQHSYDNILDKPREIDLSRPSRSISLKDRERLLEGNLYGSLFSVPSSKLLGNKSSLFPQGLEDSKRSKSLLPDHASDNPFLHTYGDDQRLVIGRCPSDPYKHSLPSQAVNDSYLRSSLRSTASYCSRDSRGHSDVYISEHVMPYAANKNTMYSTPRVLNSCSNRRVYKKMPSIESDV

compound	resultUnit	Ki
O=C(O)[C@H]1NCCN(C(=O)c2ccc3c(ccc4ccccc43)c2)[C@H]1C(=O)O (racemic)	µM	7.2

----------
biological target: NMDA receptors; test: NMDA-induced depolarizations of motoneurones, hemisected neonatal rat spinal cord; conditions: neonatal rat spinal cord; competitive antagonist; read-out: affinity (Kd), Schild analysis of NMDA-induced depolarizations
pKd: −log10 of the molar value.

compound	pKd
O=C(O)[C@H]1NCCN(C(=O)c2ccc3c(ccc4ccccc43)c2)[C@H]1C(=O)O (racemic) [PPDA]	6.61

----------
biological target: Native NMDA receptor, Midline thalamus (NR2B/NR2D); assay: quantitative receptor autoradiography of [3H]-glutamate labeled native NMDA receptors, midline thalamus; conditions: [3H]-glutamate autoradiography, rat brain sections; read-out: Ki, native NMDA receptor potency, Midline thalamus (NR2B/NR2D)
pKi: −log10 of the molar value.

compound	testedOn	pKi
O=C(O)[C@H]1NCCN(C(=O)c2ccc3c(ccc4ccccc43)c2)[C@H]1C(=O)O (racemic)	Native NMDA receptor, Midline thalamus (NR2B/NR2D)	6.51

----------
biological target: NR1/NR2C (Rattus norvegicus, UniProt P35439+Q00961); construct: expressed in transfected cells; host or cells: Xenopus oocytes injected with in vitro transcribed RNA; assay: two-microelectrode voltage clamp of recombinant NMDA receptors in Xenopus oocytes, NR1/NR2C; assay type: cell-based

compound	Ki
O=C(O)[C@H]1NCCN(C(=O)c2ccc3c(ccc4ccccc43)c2)[C@H]1C(=O)O (racemic) [PPDA]	70 nM
